System: PC-3 prostate
Protocol: NCI tumour cell line growth inhibition, 48 h
Reported Metric: TGI

Value lookup for TGI; key = "Fc1ccc2[nH]c3c(NCCCN4CCOCC4)ncnc3c2c1"
> 100 µM

# input molecule: "CN(C)c1ccc(/C=C/C=C(/C#N)c2ccccc2)cc1" ; wanted: its TGI
> 100 µM

Could you share which TGI value was measured for "Cc1cccc2c1NC(=S)[C@@H]1CCCN1C2=O" ?
> 100 µM

What value of TGI has been recorded for this entry: "C[C@@H]1CN(CC(=O)N2CC(C)(C)c3nc(CO)c(Cc4ccc(F)cc4)cc32)[C@@H](CN2CCOC[C@H]2C)CN1"
> 100 µM

I have this molecule here, "CNC(=O)c1[nH]cnc1/N=N/N(C)N" , and I need its recorded TGI.
> 100 µM

Suppose we examine the molecule OC1COC(n2c3ccc(Br)cc3c3ccc4c5ccccc5[nH]c4c32)C(O)C1O (stereo unspecified) ; what TGI value has been reported?
12 µM

Which measured TGI value corresponds to "Cc1ccc2c(n1)C(=O)c1ccccc1C2=O" ?
68.8 µM

Given the molecule "CCCCn1cnc2c(SC)ncnc21" , what is its reported TGI?
> 100 µM

Consider the molecule "CC1(C)CC(=O)c2c(nc3ccc4ccccc4c3c2-c2ccc(NC(=O)CCC(=O)Nc3ccc(-c4c5c(nc6ccc7ccccc7c46)CC(C)(C)CC5=O)cc3)cc2)C1" and give its measured TGI.
> 100 µM

Given the entry "CSc1ccc(/C=C2\N=C(c3ccccc3)N(c3nc4ccc(Sc5ccccc5)cc4[nH]3)C2=O)cc1" , report its measured TGI.
> 87.9 µM

# lookup: TGI of "CN(C)c1ccc2cc(-c3ccccc3F)c(N)nc2c1"
15.2 µM

// data source = PubChem BioAssay (NCI)
